target: PKK in kaolin activated human platelet poor plasma (Homo sapiens, UniProt P03952)
Construct: Platelet poor plasma (PPP) obtained from human wholeblood; from tissue
Sequence (P03952 391-638 limits assumed): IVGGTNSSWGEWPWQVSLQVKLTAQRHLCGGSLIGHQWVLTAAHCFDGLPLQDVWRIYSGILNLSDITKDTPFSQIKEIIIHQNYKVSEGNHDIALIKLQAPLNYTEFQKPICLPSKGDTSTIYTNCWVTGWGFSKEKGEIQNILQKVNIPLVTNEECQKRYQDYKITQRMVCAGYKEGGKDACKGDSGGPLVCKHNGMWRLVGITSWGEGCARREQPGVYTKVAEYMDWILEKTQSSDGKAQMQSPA
Sequence (P03952 20-390 partner limits assumed): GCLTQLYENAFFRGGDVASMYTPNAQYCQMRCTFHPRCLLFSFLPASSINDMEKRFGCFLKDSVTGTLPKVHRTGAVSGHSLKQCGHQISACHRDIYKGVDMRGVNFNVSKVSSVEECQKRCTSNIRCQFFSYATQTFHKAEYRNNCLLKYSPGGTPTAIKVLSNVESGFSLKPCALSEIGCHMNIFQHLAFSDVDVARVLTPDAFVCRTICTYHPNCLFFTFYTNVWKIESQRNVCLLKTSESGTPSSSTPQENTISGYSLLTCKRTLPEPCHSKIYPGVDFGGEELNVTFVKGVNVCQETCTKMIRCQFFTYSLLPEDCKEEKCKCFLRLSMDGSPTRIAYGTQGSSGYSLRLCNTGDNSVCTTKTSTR
run description: Inhibition of PKK in kaolin activated human PPP
Type: biochemical
recorded conditions: kaolin (25, 75, 250, 750 μg/mL) activated human PPP, global fit
Let's look at some compounds and their measured IC90.
Write it as a number; the unit nM goes unstated.

>>> numeric_value("Cc1[nH]nc2c1CC[C@H]2NC(=O)c1cnn(Cc2cnc(N3CC4CC4C3)nc2C(F)F)c1 (stereo partly drawn)")
499

Q: IC90 lookup needed for Cc1[nH]nc2c1CC[C@H]2NC(=O)c1cn(Cc2cnc(N3CC4CC4C3)cc2C(F)(F)F)cn1 (stereo partly drawn) , thanks.
A: 539

Q: Data request, read-out IC90, for Cc1[nH]nc2c1CC[C@H]2NC(=O)c1cnn(Cc2ccc(N3CC4C(C3)C4(F)F)nc2C(F)F)c1 (stereo partly drawn)
A: 242

Q: Fill blank: measured IC90 of the compound Cc1[nH]nc2c1CC[C@H]2NC(=O)c1cn(Cc2ccc(N3CC4CC4C3)nc2C(F)F)nn1 (stereo partly drawn) is ____.
A: 486

Q: Report IC90 for Cc1[nH]nc2c1CC[C@H]2NC(=O)c1cn(Cc2ccc(N3CC4C(C3)C4(F)F)nc2C(F)F)cn1 (stereo partly drawn) please.
A: 236

Q: # query: IC90 of entry Cc1[nH]nc2c1CC[C@H]2NC(=O)c1cn(Cc2ccc(N3CC4CC4C3)nc2C(F)F)cn1 (stereo partly drawn)
A: 293

Q: What does the data say about its IC90? Entry: "Cc1[nH]nc2c1CC[C@H]2NC(=O)c1cn(Cc2ccc(N3CC4(CC4)C3)nc2C(F)F)nn1"
A: 122

Q: Need IC90, item Cc1[nH]nc2c1CC[C@H]2NC(=O)c1cnn(Cc2ccc(N3CC4CC4C3)nc2C(F)F)c1 (stereo partly drawn)
A: 195

Q: Sample "Cc1[nH]nc2c1CC[C@H]2NC(=O)c1cnn(Cc2ccc(N3CC4(CC4)C3)nc2C(F)F)c1" — what was its IC90?
A: 182

Q: Look up IC90: Cc1[nH]nc2c1CC[C@H]2NC(=O)c1cn(Cc2cnc(N3CC4CC4C3)nc2C(F)F)cn1 (stereo partly drawn)
A: 305

Q: So what does the record say about IC90 for "Cc1[nH]nc2c1CC[C@H]2NC(=O)c1cn(Cc2ccc(N3CC4(CC4)C3)nc2C(F)F)cn1" ?
A: 149

Q: // lookup IC90 for Cc1[nH]nc2c1CC[C@H]2NC(=O)c1cnn(Cc2ccc(N3CC4CC4C3)nc2C(F)(F)F)c1 (stereo partly drawn)
A: 746
